biological target: Thymidine kinase (Human herpesvirus 1 (strain SC16) (HHV-1) (Human herpes simplex virus1)); test: Inhibitory activity against Herpes simplex virus type-I specific thymidine kinase
Sequence (P06479 whole entry): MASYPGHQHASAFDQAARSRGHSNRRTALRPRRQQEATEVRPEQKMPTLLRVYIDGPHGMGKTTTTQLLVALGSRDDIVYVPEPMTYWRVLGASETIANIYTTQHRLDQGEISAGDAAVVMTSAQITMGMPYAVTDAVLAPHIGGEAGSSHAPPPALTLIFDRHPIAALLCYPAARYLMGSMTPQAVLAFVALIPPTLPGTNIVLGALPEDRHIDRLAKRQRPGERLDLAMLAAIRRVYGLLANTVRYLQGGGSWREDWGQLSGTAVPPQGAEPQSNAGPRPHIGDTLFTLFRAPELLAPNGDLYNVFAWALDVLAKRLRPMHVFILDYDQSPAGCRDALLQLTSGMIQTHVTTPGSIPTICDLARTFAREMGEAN
// values below are reported EC50

{"compound": "CCCCc1ccc(NC2=NC(=O)C3N=CN([C@H]4C[C@H](O)[C@@H](COP(=O)(O)O)O4)C3=N2)cc1 (stereo not given in full)", "unitTag": "µM", "EC50": 400}
{"compound": "Cc1ccc(Nc2nc3nc[nH]c3c(=O)[nH]2)cc1", "unitTag": "µM", "EC50": 50}
{"compound": "Cc1ccc(Nc2nc3c(ncn3C3O[C@@H](CO)[C@H](O)[C@@H]3O)c(=O)[nH]2)cc1 (stereo not given in full)", "unitTag": "µM", "EC50": 30}
{"compound": "CCCCc1ccc(Nc2nc3nc[nH]c3c(=O)[nH]2)cc1", "unitTag": "µM", "EC50": 50}
{"compound": "CCc1cccc(Nc2nc3nc[nH]c3c(=O)[nH]2)c1", "unitTag": "µM", "EC50": 3}
